For each of the compounds below, state its MIC.
Tested on: Escherichia coli
Assay: Antibacterial activity against Escherichia coli ATCC 35218 after 24 hr by disk diffusion method
Format: functional
Conditions: ATCC 35218, 24 h
Numbers only, in µg/mL.

O=C(/C=C/c1cccc(Cl)c1)c1ccc(C(=O)/C=C/c2cccc(Cl)c2)cc1
300
O=C(/C=C/c1ccc(Cl)cc1)c1ccc(C(=O)/C=C/c2ccc(Cl)cc2)cc1
100
O=C(/C=C/c1ccccc1)c1ccc(C(=O)/C=C/c2ccccc2)cc1
200

For every listed record, write down its MIC.
1. O=C(/C=C/c1ccccc1[N+](=O)[O-])c1ccc(C(=O)/C=C/c2ccccc2[N+](=O)[O-])cc1
2. COc1ccc(/C=C/C(=O)c2ccc(C(=O)/C=C/c3ccc(OC)c(OC)c3)cc2)cc1OC
3. O=C(/C=C/c1ccccc1Cl)c1ccc(C(=O)/C=C/c2ccccc2Cl)cc1
4. O=C(/C=C/c1ccc(Br)cc1)c1ccc(C(=O)/C=C/c2ccc(Br)cc2)cc1
5. O=C(/C=C/c1cccc(Br)c1)c1ccc(C(=O)/C=C/c2cccc(Br)c2)cc1

## Output
100
100
100
50
50

For every listed record, write down its MIC.
1. O=C(/C=C/c1ccccc1O)c1ccc(C(=O)/C=C/c2ccccc2O)cc1
2. O=C(/C=C/c1ccc([N+](=O)[O-])cc1)c1ccc(C(=O)/C=C/c2ccc([N+](=O)[O-])cc2)cc1

## Output
[50, 50]

Origin of measurements: ChEMBL document CHEMBL3045415
